test: NCI Yeast Anticancer Drug Screen. Data for the bub3 strain (AID 167); conditions: S. cerevisiae bub3 mutant strain, at 5.0 µM (retest, dose inferred, filed as 0.5), active compounds read high
The panel holds about 79,000 compounds, 15% with a hit somewhere; the sample as a whole holds those more often. Active and inactive are the calls of the source. Rule as the data show it: active = growth inhibition above about 70%; inactive = the rest.
VALUE TYPE: growth inhibition

Give a short answer stating reported growth inhibition for "COc1cc(N(C)C)ccc1/C=C\c1ccnc2ccccc12" .
-14% (inactive)

Tell me growth inhibition reported for "O=C1C=CC(=O)N1c1ccc(I)cc1"
100% (active)

Please report growth inhibition for the following compound: "CO[C@@]12[C@H](COC(N)=O)C3=C(C(=O)C(C)=C(N)C3=O)N1C[C@@H]1N[C@@H]12"
29% (inactive)

Determine from records and report growth inhibition for "Cc1ccc(Nc2n[nH]c(=S)s2)cc1"
45% (inactive)

Answer with reported growth inhibition of "CC(=O)N1C(=O)/C(=C\C(=O)c2ccc([N+](=O)[O-])cc2)c2ccccc21"
12% (inactive)

Please report growth inhibition for the following compound: "O=C(CNS(=O)(=O)Cc1ccccc1)NNc1ccccc1"
5% (inactive)

Please report growth inhibition for the following compound: "On1cnc(=S)c2[nH]cnc21"
17% (inactive)
